target: Fes (UniProt P07332); assay: phosphorylation enrichment, bacterial display (enrichment ratio); higher = better substrate or ligand; peptides without Tyr show the background;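 further: 11-residue human phosphosite peptides and single-mutation variants displayed on the E. coli surface, counted by deep sequencing, each peptide's frequency after selection divided by its frequency in the unselected input library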;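 further: frequency after pTyr selection over input frequency; kinase dosed for 20-30% of maximal phosphorylation in three min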
Sequence (P07332 whole entry, looked up): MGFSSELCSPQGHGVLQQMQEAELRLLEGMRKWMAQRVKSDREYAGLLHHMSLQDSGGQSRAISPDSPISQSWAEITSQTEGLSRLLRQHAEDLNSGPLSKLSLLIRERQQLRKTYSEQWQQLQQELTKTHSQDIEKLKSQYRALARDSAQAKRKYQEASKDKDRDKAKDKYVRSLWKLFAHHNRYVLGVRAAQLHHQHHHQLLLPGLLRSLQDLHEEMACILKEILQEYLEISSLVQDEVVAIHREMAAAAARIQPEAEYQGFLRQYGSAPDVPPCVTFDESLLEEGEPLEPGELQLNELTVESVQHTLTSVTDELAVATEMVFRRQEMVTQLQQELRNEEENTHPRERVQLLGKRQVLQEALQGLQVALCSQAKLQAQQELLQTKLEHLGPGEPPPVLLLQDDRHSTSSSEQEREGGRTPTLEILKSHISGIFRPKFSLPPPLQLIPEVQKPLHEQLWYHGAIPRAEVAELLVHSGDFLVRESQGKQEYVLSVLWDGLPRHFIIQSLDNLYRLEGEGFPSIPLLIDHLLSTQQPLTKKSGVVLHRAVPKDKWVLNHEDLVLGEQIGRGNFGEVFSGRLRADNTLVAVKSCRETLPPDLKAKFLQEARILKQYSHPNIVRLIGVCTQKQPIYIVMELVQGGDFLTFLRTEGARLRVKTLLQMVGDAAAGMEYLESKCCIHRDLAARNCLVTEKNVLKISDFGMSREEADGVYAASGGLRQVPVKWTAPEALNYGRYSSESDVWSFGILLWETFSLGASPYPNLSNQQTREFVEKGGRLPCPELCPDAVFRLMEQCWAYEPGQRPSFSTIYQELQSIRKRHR
Output Met for phosphorylation enrichment not less than 1; output Not met otherwise.

DQLVKYGVNPG [TMPO_Y127] = Not met
RSSNTYTLMDV [ALCAM_Y298_T301M] = Not met
LYSGDYYRIQG [DDR2_Y740] = Met
NIWDSYTTNKV [GNB1_Y85_I80N] = Not met
GGKYSYLKVGH [GRM3_Y480] = Not met
IGERTYGQVFK [CDK13_Y716_G714R_YF] = Not met

Please tell me: is the sequence AFLLLYFNDTH [BMP15_Y235] at or over 1 in terms of phosphorylation enrichment?
Met

Please tell me: is the sequence EYGRRYGFSRQ [CCDC93_Y209] at or over 1 in terms of phosphorylation enrichment?
Not met

Please tell me: is the sequence VATRWYQSPEL [CDKL5_Y177_R178Q] at or over 1 in terms of phosphorylation enrichment?
Not met

Please tell me: is the sequence LSIWPYLQKID [MFSD8_Y63_M58L] at or over 1 in terms of phosphorylation enrichment?
Met

Please tell me: is the sequence SHISGYAALRR [RAPH1_Y1226_T1228A] at or over 1 in terms of phosphorylation enrichment?
Met

Please tell me: is the sequence SLLKDYSPQLQ [OTC_Y345_T343K] at or over 1 in terms of phosphorylation enrichment?
Not met

Please tell me: is the sequence GKSHIYFWTLD [EML2_Y230_E235D] at or over 1 in terms of phosphorylation enrichment?
Met

Please tell me: is the sequence KDHPDYKYQRR [SOX10_Y171_P175R] at or over 1 in terms of phosphorylation enrichment?
Not met

Please tell me: is the sequence CTLSVYRQLHN [LUZP1_Y1036] at or over 1 in terms of phosphorylation enrichment?
Met

Please tell me: is the sequence PMFTKYGNGLL [RPGRIP1L_Y196_S199G] at or over 1 in terms of phosphorylation enrichment?
Met

Please tell me: is the sequence ERWLKYFPIEQ [HS3ST5_Y244] at or over 1 in terms of phosphorylation enrichment?
Met

Please tell me: is the sequence VGTKRYMAPEV [ACVRL1_Y375] at or over 1 in terms of phosphorylation enrichment?
Not met

###

In this section we review reported phosphorylation enrichment values for a set of sequences.
target: Hck (UniProt P08631); test: phosphorylation enrichment, bacterial display (enrichment ratio); higher = better substrate or ligand; peptides without Tyr show the background
Sequence (P08631 whole entry, looked up): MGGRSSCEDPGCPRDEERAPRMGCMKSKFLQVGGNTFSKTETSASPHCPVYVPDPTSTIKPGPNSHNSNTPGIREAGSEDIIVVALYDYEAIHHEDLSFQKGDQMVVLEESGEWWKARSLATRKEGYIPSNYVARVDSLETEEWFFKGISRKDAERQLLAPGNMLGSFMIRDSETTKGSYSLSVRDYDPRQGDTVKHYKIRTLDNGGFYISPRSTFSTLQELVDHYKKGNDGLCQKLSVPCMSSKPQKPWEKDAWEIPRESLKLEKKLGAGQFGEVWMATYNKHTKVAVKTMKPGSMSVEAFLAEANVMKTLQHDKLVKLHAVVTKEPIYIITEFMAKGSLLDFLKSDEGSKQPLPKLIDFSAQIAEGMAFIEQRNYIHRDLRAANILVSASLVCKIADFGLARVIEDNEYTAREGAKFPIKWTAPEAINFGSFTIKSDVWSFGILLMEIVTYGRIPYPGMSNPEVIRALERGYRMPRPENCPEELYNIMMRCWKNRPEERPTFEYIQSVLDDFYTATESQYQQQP
# respond with the number and nothing more

Here's what some known entries look like.
KDHPDYKYPPR [SOX10_Y171_Q174P] = 0.381
HHTDEYEYDEL [TGM1_Y134] = 0.943
ERLWDYGMSSS [F8_Y1728] = 0.459
QEITTYRRLLE [KRT14_Y415_A413T] = 0.542
SGSIHYSHVPR [GLB1_Y57_R59H] = 0.451
DLAHKYHGGGG [HBB_Y146_A141D] = 0.348
GNLQEYLTRHV [TGFBR2_Y336] = 0.465
KNEVLYDEENH [ARFGEF1_Y314_G316E] = 0.547
LNCAGYCDALE [MTUS1_Y151] = 0.511
KHTLSFVDVGT [SDHA_Y629_Y629F] = 0.364

Name the recorded phosphorylation enrichment for EYGRRYGFSRQ [CCDC93_Y209] .
0.438

Name the recorded phosphorylation enrichment for HSVLQYVGGVM [FGGY_Y136] .
0.833
